System: DLD-1
Experiment: Antiproliferative activity against human DLD1 cells at 100 uM relative to control
Assay type: functional
Experimental Endpoint: inhibition at 100 µM

// known answers, use as guide
# Compound, Experimental Endpoint, Result
measured = [
    ("CCOC(=O)C1=C(C)NC(=O)NC1c1cc(/C=N/NC(N)=S)c(O)c(C(C)(C)C)c1 (stereo not drawn)", "inhibition at 100 µM", "> 80%"),
    ("CCOC(=O)C1=C(C)NC(=O)NC1c1cc(C)c(O)c(/C=N/NC(N)=O)c1 (stereo not drawn)", "inhibition at 100 µM", "< 80%"),
    ("CCOC(=O)C1=C(C)NC(=O)NC1c1cc(/C=N/NC(=S)Nc2ccccc2)c(O)c(C(C)(C)C)c1 (stereo not drawn)", "inhibition at 100 µM", "> 80%"),
    ("CCOC(=O)C1=C(C)NC(=S)NC1c1cc(C)c(O)c(/C=N/NC(=O)Nc2ccc(Cl)cc2)c1 (stereo not drawn)", "inhibition at 100 µM", "> 80%"),
    ("CCOC(=O)C1=C(C)NC(=O)NC1c1cc(C)c(O)c(/C=N/NC(=S)NC)c1 (stereo not drawn)", "inhibition at 100 µM", "> 80%"),
    ("CCOC(=O)C1=C(C)NC(=O)NC1c1cc(/C=N/NC(=S)Nc2ccc(Cl)cc2)c(O)c(C(C)(C)C)c1 (stereo not drawn)", "inhibition at 100 µM", "> 80%"),
    ("CCOC(=O)C1=C(C)NC(=S)NC1c1cc(/C=N/NC(=S)Nc2ccc(Cl)cc2)c(O)c(C(C)(C)C)c1 (stereo not drawn)", "inhibition at 100 µM", "< 80%"),
]

Could you now look at the following compound, please?
What measured inhibition at 100 µM is associated with CCOC(=O)C1=C(C)NC(=S)NC1c1cc(/C=N/NC(=O)Nc2ccc(Cl)cc2)c(O)c(C(C)(C)C)c1 (stereo not drawn) on DLD-1?
< 80%
